Listed below: inhibition values for each entry.
Biological target: Leucine aminopeptidase (Plasmodium falciparum (isolate 3D7)) (UniProt Q8IL11)
Sequence (Q8IL11 whole entry, looked up): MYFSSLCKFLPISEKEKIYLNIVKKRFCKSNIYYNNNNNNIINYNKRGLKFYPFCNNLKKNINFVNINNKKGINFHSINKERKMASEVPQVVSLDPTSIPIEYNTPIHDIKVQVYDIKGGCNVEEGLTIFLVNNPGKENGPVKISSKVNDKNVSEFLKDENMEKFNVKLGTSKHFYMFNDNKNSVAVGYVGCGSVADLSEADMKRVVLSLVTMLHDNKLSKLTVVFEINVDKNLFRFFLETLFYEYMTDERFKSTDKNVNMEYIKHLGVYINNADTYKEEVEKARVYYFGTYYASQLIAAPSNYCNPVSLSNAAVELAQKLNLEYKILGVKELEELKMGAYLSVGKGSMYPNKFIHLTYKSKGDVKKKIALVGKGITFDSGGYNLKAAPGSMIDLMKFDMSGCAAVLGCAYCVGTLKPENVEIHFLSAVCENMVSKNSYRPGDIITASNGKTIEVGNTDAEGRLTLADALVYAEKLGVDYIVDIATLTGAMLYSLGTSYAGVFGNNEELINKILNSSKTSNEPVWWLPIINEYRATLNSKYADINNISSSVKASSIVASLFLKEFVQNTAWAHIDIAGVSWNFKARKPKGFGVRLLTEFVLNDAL
Experiment: P. falciparum M17LAP inhibitors, primary screen, biochemical, fluorogenic H-Leu-NHMec substrate, 1536-well (AID 1619);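 also: plate controls were full reaction with DMSO carrier for no effect and no enzyme background for full effect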
Conditions: recombinant M17LAP, H-Leu-NHMec fluorogenic kinetic assay; at 30 µM; hits give high values
The whole screen tested about 220,000 compounds, of which about 830 (0.38%) were called active. Not all results are given here. Measured potencies and affinities stand elsewhere.

# compound, units, inhibition
data = [
    ("Cc1ccc(CNC(=O)c2ccc3c(=O)n4c(-c5ccc(C)cc5)csc4nc3c2)cc1", "%", 4.76),
    ("Cc1c(C(=O)c2ccccc2)c2ccccn2c1CCc1ccccn1", "%", 5.7),
    ("O=C(O)CCSCCCN1C(=O)c2cccc3cccc(c23)C1=O", "%", 8.08),
    ("CCOC(=O)CSc1nc2c(sc(=S)n2Cc2ccco2)c(=O)n1-c1ccccc1", "%", 6.2),
    ("COC(=O)c1cc(C(=O)OC)n(Cc2ccc(Br)cc2)n1", "%", -9.56),
    ("COc1ccc(C(=O)Nc2nc3cc(OC)c(OC)cc3c(=O)[nH]2)cc1", "%", 0.22),
    ("Cc1c(C(=O)N2CCCC2)sc(NC(=O)c2cccc(Cl)c2)c1C#N", "%", 18.9),
    ("CCOC(=O)c1sc(=S)n(-c2ccccc2)c1N", "%", 6.93),
    ("COc1ccc2nc(NC(=O)CSc3nccc(C)n3)sc2c1", "%", 1.42),
    ("CCOC(=O)CSc1nc2c(sc(=S)n2-c2ccc(OCC)cc2)c(=O)[nH]1", "%", 14.5),
    ("COc1ccc(NC(=O)CSc2nc(C)cc(C)n2)cc1", "%", 44),
    ("CCCN(CCC)C(=O)CSc1nc2c(sc(=S)n2-c2ccc(OCC)cc2)c(=O)[nH]1", "%", 30.1),
    ("CC(NC(=O)C(=O)N/N=C\\c1ccc([N+](=O)[O-])cc1)c1ccccc1 (stereo not drawn)", "%", 9.58),
    ("CCC1=Nc2cc(C(=O)O)ccc2Sc2ccc(Cl)cc21", "%", 7.99),
    ("CCN(CC)C(=O)CSc1nc2c(sc(=S)n2-c2ccccc2)c(=O)[nH]1", "%", 12),
    ("CCCc1[nH]nc2c1C(c1ccccc1OCC)C(C#N)=C(N)O2 (stereo not drawn)", "%", 8.34),
    ("COC(=O)c1ccc(NC(=O)CSc2nc(C)cc(=O)[nH]2)cc1", "%", 35.4),
    ("Cc1cccc(NC(=O)CCCn2cc([N+](=O)[O-])cn2)n1", "%", -2.41),
    ("CCOC(=O)c1sc(NC(=O)Cn2nnc3sc4c(c3c2=O)CCCC4)nc1C", "%", -3.69),
    ("CCSc1nnc(-c2cc(Br)ccc2N=Cc2c(C)[nH]n(-c3ccccc3)c2=O)c(=O)[nH]1", "%", 0.47),
    ("Cc1nn(-c2ccccc2)c(C)c1/C=N/O", "%", 4.53),
    ("COc1ccc(C(O)(C(=O)NNc2ccc(C)cc2)c2cccs2)cc1 (stereo not drawn)", "%", 15.2),
    ("FC(F)(F)c1nnc2ccc(NCn3nnc4ccccc43)nn12", "%", 22.6),
    ("CC(=O)c1ccn(S(=O)(=O)c2ccc(Cl)cc2)c1", "%", 9.38),
    ("CCOC(=O)/C(N=Nc1ccc(Cl)cc1)=C(/O)c1ccc([N+](=O)[O-])cc1", "%", 3.08),
    ("COCCOC(=O)c1c(C)oc2ccc(NS(=O)(=O)c3ccc(C)cc3)cc12", "%", 2.98),
    ("CCOc1ccccc1C1C(C#N)=C(N)Oc2n[nH]c(CC)c21 (stereo not drawn)", "%", 29.4),
    ("COc1ccc(S(=O)(=O)Nc2ccc3oc(C)c(C(=O)O)c3c2)cc1", "%", 6.21),
    ("Cc1cc(C)nc(NC(=O)CSc2nccc(C)n2)n1", "%", 5.87),
    ("Cc1ccccc1-c1n[nH]c(=S)n1/N=C/c1c(C)nn(-c2ccccc2)c1C", "%", 6.29),
    ("CC(OC(=O)c1cn(-c2ccccc2)nc1-c1cccnc1)C(N)=O (stereo not drawn)", "%", 1.32),
    ("O=C(CSc1nnc(NC2CCCCC2)s1)NC1CCS(=O)(=O)C1 (stereo not drawn)", "%", 11.6),
    ("Cc1cccc(C2c3[nH]c4ccccc4c3CCN2C(=O)c2cn(C)c3ccccc3c2=O)n1 (stereo not drawn)", "%", 8.5),
    ("O=C(CSc1nccc(=O)[nH]1)N1N=C2/C(=C/c3ccco3)CCCC2C1c1ccco1 (stereo not drawn)", "%", 13.7),
    ("O=C(O)c1cc(S(=O)(=O)Nc2ccc3oc(=O)sc3c2)ccc1O", "%", 51.1),
    ("Cc1nnc(SCC(=O)NN2C(=O)NC3(CCCCC3)C2=O)s1", "%", 0.53),
    ("Cc1cc(C(=O)COc2ccccc2[N+](=O)[O-])c(C)n1-c1cccc(S(=O)(=O)N2CCOCC2)c1", "%", 2.08),
    ("O=c1c2c3c(sc2[nH]c(=S)n1Cc1ccco1)CCC3", "%", -4.17),
    ("COc1cc2c(C(=O)N3CCN(c4cccc(Cl)c4)CC3)cn(CC(C)C)c(=O)c2cc1OC", "%", -4.76),
    ("CCOc1ccc(-n2c(=S)sc3c(=O)[nH]c(SCC(=O)C(C)(C)C)nc32)cc1", "%", 37),
    ("O=C1C(C2=NC(c3ccccn3)C3C(=O)N(c4ccccc4)C(=O)C23)=C(O)c2ccccc21 (stereo not drawn)", "%", -11),
    ("CCN1C(=O)/C(=C\\c2nc3ccccc3c(=O)n2-c2ccccc2)c2ccccc21", "%", -3.98),
    ("Cc1nn(-c2ccccc2)c(C)c1/C=N/n1c(-c2ccccc2Br)n[nH]c1=S", "%", -1.13),
]
